Assay: Pharmacokinetics, oral administration
Format: in vivo, Male C57Bl/6J mice
Details: male, C57Bl/6J, mouse, in vivo, po, 10 mg/kg, oral 10 mg/kg, Avg. of 3 mice; read-out: AUCINF obs. (converted)
recorded.endpoint: AUC(0-inf)
Your answer should be a number followed by the unit of measure.

q: Suppose we examine the molecule CC(C)(C)CN(C(=O)CCl)C1CCS(=O)(=O)C1 (stereo not shown) ; what AUC(0-inf) value has been reported?
a: 9230 ng·h/mL

###

Experiment: Pharmacokinetics, intravenous administration
Type: in vivo, Male C57Bl/6J mice
Settings: male, C57Bl/6J, mouse, in vivo; intravenous 2 mg/kg, individual mice No. 1-3
recorded.endpoint: Tmax (min)
Provide only the numeric value, understood in min.

q: Suppose we examine the molecule CC(C)(C)CN(C(=O)CCl)C1CCS(=O)(=O)C1 (stereo not shown) ; what Tmax value has been reported?
a: 30
